- System: DeltatarO mutant
- test: S. aureus survival, RN4220 and DeltatarO strains – OD600, teichoic acid synthesis inhibitors, primary screen (AID 463173)
- assay.context: S. aureus RN4220 wild type/DeltatarO growth, OD600, 18 h, active compounds read low, screened at 18.75 µg/mL (by protocol)
Out of some 52,000 compounds screened, about 4,300 (8.3%) were called active. This is one part of a sample in which actives are shown more often than they occur.
Listed next: entries and their corresponding survival.

{"compound": "COc1ccc(S(=O)(=O)c2c(O)c3ccc(C(=O)NCc4ccc(F)cc4)cc3[nH]c2=O)cc1", "tested.system": "DeltatarO mutant", "survival / %": 108}
{"compound": "O=C(NCCCCc1ccccc1)c1nn(-c2ccccc2)nc1CO", "tested.system": "DeltatarO mutant", "survival / %": 58}
{"compound": "N=c1n(CC(N)=O)c2ccccc2n1Cc1ccccc1Cl", "tested.system": "DeltatarO mutant", "survival / %": 99}
{"compound": "O=C1CSC(=O)N1CCOc1ccc(F)cc1", "tested.system": "DeltatarO mutant", "survival / %": 80}
{"compound": "CCc1c(C)nc2nncn2c1Nc1ccc(Cl)cc1", "tested.system": "DeltatarO mutant", "survival / %": 91}
{"compound": "CCCCn1c(=N)n(CCCOc2ccc(F)cc2)c2ccccc21", "tested.system": "DeltatarO mutant", "survival / %": 48}
{"compound": "COc1ccc(CN(Cc2ccco2)C(=O)c2ccccc2F)cc1", "tested.system": "DeltatarO mutant", "survival / %": 74}
{"compound": "Cc1ccccc1COC(=O)c1nn(-c2ccccc2)nc1N", "tested.system": "DeltatarO mutant", "survival / %": -1}
{"compound": "COc1ccc(-n2nc3cc(C)c(NC(=O)c4ccc(C)cc4C)cc3n2)cc1Cl", "tested.system": "DeltatarO mutant", "survival / %": 83}
{"compound": "COCCCNC(=O)c1ccc(Cn2c(=O)c3ccccc3n(Cc3c(C)cc(C)cc3C)c2=O)cc1", "tested.system": "DeltatarO mutant", "survival / %": 107}
{"compound": "CCS(=O)(=O)c1ncc(Cl)c(C(=O)N2CCN(c3ccc(OC)cc3)CC2)n1", "tested.system": "DeltatarO mutant", "survival / %": 68}
{"compound": "CCOC(=O)Cn1c(=N)n(Cc2ccc(C(C)(C)C)cc2)c2ccccc21", "tested.system": "DeltatarO mutant", "survival / %": 103}
{"compound": "N=c1n(CC(=O)O)c2ccccc2n1Cc1ccccc1", "tested.system": "DeltatarO mutant", "survival / %": 84}
{"compound": "COc1ccccc1NC(=O)c1c(NC(=O)c2cccs2)sc2c1CCC(C(C)(C)C)C2 (configuration not stated)", "tested.system": "DeltatarO mutant", "survival / %": 139}
{"compound": "Cn1c(Oc2cccc(Cl)c2)nc2c1c(=O)n(Cc1ccccc1Cl)c(=O)n2C", "tested.system": "DeltatarO mutant", "survival / %": 66}
{"compound": "CCC(Cc1ccccc1)NC(=O)CN1C(=O)COc2ccc(S(=O)(=O)N3CCCCCC3)cc21 (configuration not stated)", "tested.system": "DeltatarO mutant", "survival / %": 113}
{"compound": "CSc1ncc(C(=O)N2CCN(c3ccc(Cl)cc3)CC2)c(C)n1", "tested.system": "DeltatarO mutant", "survival / %": 106}
{"compound": "N=c1n(CCO)c2ccccc2n1CCOc1ccc(F)cc1", "tested.system": "DeltatarO mutant", "survival / %": 40}
{"compound": "COc1ccccc1CNC(=O)CCNS(=O)(=O)c1cccc2nsnc12", "tested.system": "DeltatarO mutant", "survival / %": 64}
{"compound": "COC(=O)c1ccccc1NC(=O)N(Cc1ccc(C)cc1)Cc1cccn1-c1nnc(N2CCCC2=O)s1", "tested.system": "DeltatarO mutant", "survival / %": 123}
{"compound": "CCCSc1ncc(Cl)c(C(=O)N2CCN(c3cccc(Cl)c3)CC2)n1", "tested.system": "DeltatarO mutant", "survival / %": 40}
{"compound": "Cn1cc(S(=O)(=O)N2CCCC2)cc1C(=O)N1CCN(c2cccc(Cl)c2)CC1", "tested.system": "DeltatarO mutant", "survival / %": 73}
